Measured values drawn from patent US20230303690A1 for this set.

Molecular target: human LAG3 expressed on cells (human) (UniProt P18627)
Sequence (P18627 23-525): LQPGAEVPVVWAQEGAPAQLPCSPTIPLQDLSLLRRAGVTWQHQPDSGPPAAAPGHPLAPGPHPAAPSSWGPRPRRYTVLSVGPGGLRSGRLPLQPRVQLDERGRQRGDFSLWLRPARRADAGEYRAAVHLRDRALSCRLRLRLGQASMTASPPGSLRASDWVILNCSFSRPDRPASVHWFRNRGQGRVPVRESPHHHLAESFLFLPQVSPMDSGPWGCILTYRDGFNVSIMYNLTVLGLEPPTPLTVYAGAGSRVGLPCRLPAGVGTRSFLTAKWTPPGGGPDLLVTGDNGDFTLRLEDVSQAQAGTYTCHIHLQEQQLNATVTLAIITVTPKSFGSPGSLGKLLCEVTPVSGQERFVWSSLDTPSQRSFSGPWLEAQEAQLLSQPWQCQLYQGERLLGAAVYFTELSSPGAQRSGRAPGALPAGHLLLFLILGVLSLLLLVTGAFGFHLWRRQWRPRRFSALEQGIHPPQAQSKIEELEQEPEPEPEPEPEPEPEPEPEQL
Assay: cell-based or functional assay
Parameter Measured: IL-2, % of BMS, at 0.009144947 ug/mL
Note: state the figure and append the unit.

| Binder | Value Observed |
| --- | --- |
| sdAb fusion 25-27-2 (Fc fusion, not shown: a dimerising Fc or GST) QLQLVESGGGLVQAGGSLRLSCAASGSIESFSFMGWYRQAPGKQRELVAGFTGAASLSFSTYTDAVKGRFTISRDNAKNTVYLQMNSLKPEDTAVYFCNVDPWSQSWPGRYWGQGTQVTVSSGGGGSGGGGSQVQLVESGGGLVQPGGSLRLSCAASGFTLDYYAIGWFRQAPGKEREGVSCIRSSDGSTYYADSVKGRFTISSDNTKNTVYLQMNSLKPEDTAVYYCATDRYSDCRGPYENWGQGTQVTVSSEPKSCDKTHTCPPCPAPELLG | 5.39% |

Let us move to another entry and its IL-2, % of BMS, at 0.009144947 ug/mL.
Query :: Reported IL-2, % of BMS, at 0.009144947 ug/mL, binder sdAb fusion 25-2015-2 (Fc fusion, not shown: a dimerising Fc or GST) QLQLVESGGGLVQAGGSLRLSCAASGSIESFSFMGWYRQAPGKQRELVAGFTGAASLSFSTYTDAVKGRFTISRDNAKNTVYLQMNSLKPEDTAVYFCNVDPWSQSWPGRYWGQGTQVTVSSGGGGSGGGGSQLQLVESGGGLAQTGGSLRLSCAAAGFTFDDTATGWFRQAPGKNREGVACISSSDGRIHYIDSAKGRFTISKDNAKKTVYLQMDSLKPEDTAVYYCAAARKGSTDCQGAIWGSWGQGTQVIVSSEPKSCDKTHTCPPCPAPELLG : ____
Result :: -12.5%
